- protocol_notes: in vitro
- condition_details: human, Caco-2, Caco-2 (cm/sec)
*1 amine or outer side, *2 acyl side, *3 side chain or, on linkers, in order; H or OH if unused. Where a SMILES comes first, the peptide text is derived from it. Bridges are numbered along the chain shown (N, C = ends). [ ]: non-standard residue; d: D form. The star is where a group is joined. dhPhe(4-CONHMe,3-OMe) = CNC(=O)c1ccc(CC[C@@H](N)C(=O)O)cc1OC; Phe(3-CONHMe,4-OMe) = CNC(=O)c1cc(C[C@H](N)C(=O)O)ccc1OC; Phe(3-OMe,4-CONHMe) = CNC(=O)c1ccc(C[C@H](N)C(=O)O)cc1OC; NMePhe(3-Cl) = CN[C@@H](Cc1cccc(Cl)c1)C(=O)O; NMehPhe = CN[C@@H](CCc1ccccc1)C(=O)O; NMeF = CN[C@@H](Cc1ccccc1)C(=O)O; NMeGABA = CN(CCCC(=O)[*:2])[*:1]; NMeI = CC[C@H](C)[C@H](NC)C(=O)O; NMeL = CN[C@@H](CC(C)C)C(=O)O; Propyl(2R-OH) = C[C@@H](O)C*; NMeAbu = CC[C@H](NC)C(=O)O; NMeA = CN[C@@H](C)C(=O)O; Piperidide = C1CCN(*)CC1; CH2CMe2OH = CC(C)(O)C*; X8 = C1COC[C@@H](C*)N1; NBuGly = CCCCNCC(=O)O; Isopentyl = CC(C)CC*; NPrGly = CCCNCC(=O)O; Ethyl(2-OH) = OCC*; X3 = C[C@H](O)C*; Sar = CNCC(=O)O
Lab note: cut-off is 0.2 ×10⁻⁶ cm/s. Strictly less in Papp is true. Exactly 0.2 ×10⁻⁶ cm/s or more is false.

Problem: Here's an entry: CCCCN1CC(=O)N(C)[C@@H](Cc2cccc(Cl)c2)C(=O)N(C)[C@@H](CC(C)C)C(=O)N[C@@H](COC[C@@H](C)O)C(=O)N(C)[C@@H](CC(C)C)C(=O)N[C@H](C(=O)N2CCCCC2)CC(=O)N(C)CC(=O)N(C)[C@@H](Cc2ccccc2)C(=O)N[C@@H]([C@@H](C)CC)C(=O)N(C)[C@@H](CC(C)C)C(=O)N[C@@H]([C@@H](C)O)C1=O [AP78] ([Sar][NMeF]I[NMeL]T[NBuGly][NMePhe(3-Cl)][NMeL]S(Propyl(2R-OH))[NMeL]D-Piperidide; lactam N-11) . Is its Papp below 0.2 ×10⁻⁶ cm/s?
Result: false

Problem: Here is the next compound: CC[C@H](C)[C@@H]1NC(=O)[C@H](CC(C)C)N(C)C(=O)CCCN(C)C(=O)C[C@@H](C(=O)N2CCCCC2)NC(=O)[C@H](CC(C)C)N(C)C(=O)[C@H](CC(C)C)N(C)C(=O)[C@H]([C@@H](C)O)NC(=O)[C@H](CC(C)C)N(C)C(=O)[C@H](COC[C@H](C)O)NC(=O)[C@H](Cc2cccc(Cl)c2)N(C)C(=O)[C@H](Cc2ccccc2)N(C)C1=O [AP64] ([NMeGABA][NMeL]I[NMeF][NMePhe(3-Cl)]S(X3)[NMeL]T[NMeL][NMeL]D-Piperidide; lactam N-11)
Result: false

Problem: Here is the next compound: CC[C@H](C)[C@@H]1NC(=O)[C@H](CC(C)C)N(C)C(=O)CN(C)C(=O)C[C@@H](C(=O)N2CCCCC2)NC(=O)[C@H](CC(C)C)N(C)C(=O)[C@H](Cc2ccc(OC)c(C(=O)NC)c2)NC(=O)[C@H](CC(C)C)N(C)C(=O)[C@H](Cc2cccc(Cl)c2)N(C)C(=O)CN(C)C(=O)[C@H]([C@@H](C)O)NC(=O)[C@H](CC(C)C)N(C)C1=O [AP42] ([Sar][NMeL]I[NMeL]T[Sar][NMePhe(3-Cl)][NMeL][Phe(3-CONHMe,4-OMe)][NMeL]D-Piperidide; lactam N-11)
Result: false

Problem: Here is the next compound: CCCN1CC(=O)N(C)[C@@H](CC(C)C)C(=O)N[C@H](C(=O)N2CCCCC2)CC(=O)N(C)[C@@H](C)C(=O)N[C@@H](CC(C)C)C(=O)N(C)[C@@H](CC(C)C)C(=O)N(C)[C@@H](Cc2ccccc2)C(=O)N[C@@H](COCC(C)(C)O)C(=O)N(C)[C@@H](Cc2ccccc2)C(=O)N(C)[C@@H]([C@@H](C)CC)C(=O)N[C@@H]([C@@H](C)O)C1=O [AP06] ([NMeA]L[NMeL][NMeF]S(CH2CMe2OH)[NMeF][NMeI]T[NPrGly][NMeL]D-Piperidide; lactam N-11)
Result: true

Problem: Here is the next compound: CCCCN1CC(=O)N(C)[C@@H](CC(C)C)C(=O)N[C@H](C(=O)N2CCCCC2)CC(=O)N(C)[C@@H](C)C(=O)N[C@@H](COC[C@@H](C)O)C(=O)N(C)[C@@H](CC(C)C)C(=O)N(C)[C@@H](Cc2cccc(Cl)c2)C(=O)N[C@@H](CC(C)C)C(=O)N(C)[C@@H](Cc2ccccc2)C(=O)N(C)[C@@H]([C@@H](C)CC)C(=O)N[C@@H]([C@@H](C)O)C1=O [AP75] ([NMeA]S(Propyl(2R-OH))[NMeL][NMePhe(3-Cl)]L[NMeF][NMeI]T[NBuGly][NMeL]D-Piperidide; lactam N-11)
Result: false

Problem: Here is the next compound: CCCCN1CC(=O)N(C)[C@@H](CC(C)C)C(=O)N[C@@H](COC[C@@H]2COCCN2)C(=O)N(C)[C@@H](CC(C)C)C(=O)N(C)[C@@H](CC(C)C)C(=O)N[C@H](C(=O)N2CCCCC2)CC(=O)N[C@H](C(C)C)C(=O)N(C)[C@@H](Cc2ccccc2)C(=O)N[C@@H](CC(C)C)C(=O)N(C)[C@@H](CC)C(=O)N[C@@H]([C@@H](C)O)C1=O [AP239] ([dV][NMeF]L[NMeAbu]T[NBuGly][NMeL]S(X8)[NMeL][NMeL]D-Piperidide; lactam N-11)
Result: true

Problem: Here is the next compound: CCCN1CC(=O)N(C)[C@@H](CCc2ccccc2)C(=O)N(C)[C@@H](CC(C)C)C(=O)N[C@@H](COCCC(C)C)C(=O)N(C)[C@@H](CC(C)C)C(=O)N[C@H](C(=O)N2CCCCC2)CC(=O)N(C)CC(=O)N(C)[C@@H](Cc2cccc(Cl)c2)C(=O)N[C@@H](COCCO)C(=O)N(C)[C@@H](CC(C)C)C(=O)N[C@@H]([C@@H](C)O)C1=O [Compound A07] ([Sar][NMePhe(3-Cl)]S(Ethyl(2-OH))[NMeL]T[NPrGly][NMehPhe][NMeL]S(Isopentyl)[NMeL]D-Piperidide; lactam N-11)
Result: false

Problem: Here is the next compound: CC[C@H](C)[C@@H]1NC(=O)[C@H](CC(C)C)N(C)C(=O)CCCN(C)C(=O)C[C@@H](C(=O)N2CCCCC2)NC(=O)[C@H](CC(C)C)N(C)C(=O)[C@H](CC(C)C)N(C)C(=O)[C@H]([C@@H](C)O)NC(=O)[C@H](CC(C)C)N(C)C(=O)[C@H](Cc2ccc(C(=O)NC)c(OC)c2)NC(=O)[C@H](CC(C)C)N(C)C(=O)[C@H](Cc2ccccc2)N(C)C1=O [AP30] ([NMeGABA][NMeL]I[NMeF][NMeL][Phe(3-OMe,4-CONHMe)][NMeL]T[NMeL][NMeL]D-Piperidide; lactam N-11)
Result: true

Problem: Here is the next compound: CCCCN1CC(=O)N(C)[C@@H](Cc2ccccc2)C(=O)N(C)[C@@H](CC(C)C)C(=O)N[C@@H](CC(C)C)C(=O)N(C)[C@@H](CC(C)C)C(=O)N[C@H](C(=O)N2CCCCC2)CC(=O)N(C)CC(=O)N(C)[C@@H](CC(C)C)C(=O)N[C@H](CCc2ccc(C(=O)NC)c(OC)c2)C(=O)N(C)[C@@H](CC)C(=O)N[C@@H]([C@@H](C)O)C1=O [AP214] ([Sar][NMeL][dhPhe(4-CONHMe,3-OMe)][NMeAbu]T[NBuGly][NMeF][NMeL]L[NMeL]D-Piperidide; lactam N-11)
Result: false
